B1: Lysozyme C, P61626 (parent)
chain: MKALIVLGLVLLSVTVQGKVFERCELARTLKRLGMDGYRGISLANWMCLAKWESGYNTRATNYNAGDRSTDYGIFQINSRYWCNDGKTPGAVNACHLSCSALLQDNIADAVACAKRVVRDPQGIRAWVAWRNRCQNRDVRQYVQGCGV

# Variants of: B1
# applied_conditions: Homo sapiens; pH 2.72; Thermal; DSC; glycine 0.05 M; reversible: yes; structure 1LZ1; whole UniProt chain shown
endpoint: unfolding enthalpy (calorimetric) (kcal/mol)

[[record]]
mutant = "V139A"
units_text = "kcal/mol"
recorded_value = 53.6

[[record]]
mutant = "V118A"
units_text = "kcal/mol"
recorded_value = 68.9

[[record]]
mutant = "V143A"
units_text = "kcal/mol"
recorded_value = 67.2

[[record]]
mutant = "V117A"
units_text = "kcal/mol"
recorded_value = 62.2

